Hey, just so you know, these numbers are from patent US20110230472A1.

Experiment: Metabolic stability test;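 also: 100% equals the compound amount at 0 min reaction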
Format: in vitro ADME
Conditions: human liver microsome 0.5 mg protein/mL, 1 mmol/L NADPH, 37° C.
Result type: percentage of the test compound remained after reacting for 30 minutes
The number alone won't do; follow it with the unit.

// solved cases for percentage of the test compound remained after reacting for 30 minutes follow
COc1cc(N2CCc3nc(NC(C)=O)sc3C2)nc(OC)n1 : 98.9%
COc1cc(N2CCc3nc(NC(=O)NCCC(=O)NC(C)C)sc3C2)nc(OC)n1 : 93.1%
COc1cc(N2CCc3nc(NC(=O)NCCC(=O)N4CCCC4)sc3C2)nc(OC)n1 : 92.2%
CN1CCc2cc(N3CCn4nc(NC(=O)c5ccsc5)cc43)ccc2C1=O : 87.2%
CNC(=O)Nc1nc2c(s1)CN(c1ccnc(OC)n1)CC2 : 97.5%

Sure, the documented percentage of the test compound remained after reacting for 30 minutes for COc1cc(N2CCc3nc(NC(=O)Nc4ccon4)sc3C2)nc(OC)n1 is 87.3%

Sure, the documented percentage of the test compound remained after reacting for 30 minutes for CN1CCc2cc(N3CCn4nc(NC(=O)c5cccnc5)cc43)ccc2C1=O is 92%
